Listed compounds paired with reported fold change
assay: viability loss with induced miR-34 in A549 – imaging, A549 dox-inducible miR-34, nuclei and caspase counts, primary screen (AID 1347080); conditions: A549 miR-34 inducible, Hoechst nuclei count, 48 h; stronger effect = lower value; cell number ratio, induced over uninduced

compound: CC(C)n1nc(-c2ccc3oc(N)nc3c2)c2c(N)ncnc21
fold change: 0.877

compound: O=C(Nc1ccc(C(F)(F)F)cn1)N1CCN(c2ncccc2C(F)(F)F)CC1
fold change: 0.952

compound: c1ccc(Cn2c(-c3ccc(OCC(C4CCNCC4)n4c(-c5ccccc5)nc5ccccc54)cc3)nc3ccccc32)cc1 (centres undefined)
fold change: 1.11

compound: CCCCCCCCCCCC(=O)NC[C@]1(C)CCC[C@]2(C)c3ccc(C(C)C)cc3CC[C@@H]12
fold change: 0.97

compound: CCCCC/C=C\C/C=C\C/C=C\C/C=C\CCCC(=O)NC[C@]1(C)CCC[C@]2(C)c3ccc(C(C)C)cc3CC[C@@H]12
fold change: 0.99

compound: CCCCNC(=O)[C@@H]1Cc2ccccc2N1C(=O)[C@@H](N)CC
fold change: 0.978

compound: OC(c1ccccc1)C1CCN(CCc2ccccc2)CC1 (centres undefined)
fold change: 0.917

compound: CCOC(=O)c1ncc2[nH]c3cccc(OC(C)C)c3c2c1C
fold change: 0.924

compound: COc1ccc(-n2c(SCCCN3C(=O)c4cccc5cccc(c45)C3=O)nnc2-c2ccncc2)cc1
fold change: 0.884

* * *

test: compounds altering HSF1 focus formation in cells – imaging, Selleck Cancer Library (AID 1347162); conditions: human cells, HSF1 nuclear foci imaging, at 10 µM; measured here: HSF1 foci SSMD mean
Simple rule here: SSMD less than 2 is YES, otherwise NO.

compound: CN(C)c1ccccc1CN1CCCN(Cc2ccccc2N(C)C)C1c1ccncc1
assigned_category: YES
//
compound: CCOc1cc2ncc(C#N)c(Nc3ccc(OCc4ccccn4)c(Cl)c3)c2cc1NC(=O)/C=C/CN(C)C
assigned_category: YES
//
compound: Cc1c(C(=O)Nc2ccc(N3C[C@@H](C)O[C@@H](C)C3)nc2)cccc1-c1ccc(OC(F)(F)F)cc1
assigned_category: YES
//
compound: c1ccc2c(CCNc3ccc(Nc4ccncc4)cc3)c[nH]c2c1
assigned_category: YES
//
compound: CC1(O)CC(c2nc(-c3ccc4ccc(-c5ccccc5)nc4c3)c3c(N)nccn23)C1 (centres undefined)
assigned_category: YES
//
compound: CCC[C@H](NC(=O)/C(C#N)=C/c1cccc(Br)n1)c1ccccc1
assigned_category: YES
//
compound: O=C(/C=C/c1cccnc1)NCCCCC1CCN(C(=O)c2ccccc2)CC1
assigned_category: YES
//
compound: O=C(NOC[C@H](O)CO)c1ccc(F)c(F)c1Nc1ccc(I)cc1F
assigned_category: NO
//
compound: Cn1cc(-c2[nH]c3cc(NC(=O)[C@H](N)C4CCCCC4)cc4c3c2C=NNC4=O)cn1
assigned_category: YES
//
compound: COc1cc2nccc(Oc3ccc(NC(=O)NC4CC4)c(Cl)c3)c2cc1C(N)=O
assigned_category: NO
//
compound: CC1(C)CNc2cc(NC(=O)c3cccnc3NCc3ccncc3)ccc21
assigned_category: NO
//
compound: Cc1cccc(-c2[nH]c(C(C)(C)C)nc2-c2ccc3nccnc3c2)n1
assigned_category: YES
//
compound: CC(C)(C(=O)NCC(F)(F)C(F)(F)F)C(=O)N[C@@H]1C(=O)Nc2ccccc2-c2ccccc21
assigned_category: NO
//
compound: NC(=O)c1ccc(I)c([N+](=O)[O-])c1
assigned_category: YES
//
compound: O=C(O)[C@H](Cc1c[nH]c2ccccc12)N1C(=O)c2ccccc2C1=O
assigned_category: NO
//
compound: Cc1ccc(F)c(NC(=O)Nc2ccc(-c3cccc4[nH]nc(N)c34)cc2)c1
assigned_category: NO
//
compound: Cc1cnc(NC(=O)Nc2cc(Br)c(C)cc2OC[C@@H]2CNCCO2)cn1
assigned_category: NO
//
compound: c1ccc(-c2nn3c(c2-c2ccnc4cc(OCCN5CCOCC5)ccc24)CCC3)nc1
assigned_category: NO

* * *

assay: growth inhibition, single agents and combos, LFS_MB_2R, cell-based, cisplatin combos, synergistic combos for chromothripsis tumors (AID 1671457); conditions: LFS_MB_2R medulloblastoma cells, at 0.5 µM;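 further: cells exposed to compound for four days before readout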
The source made the active and inactive calls. No stated cut-off is given here; in the data, active means inhibition above about 80%; inactive means the rest.
Possible outcomes: YES (active), NO (inactive)

compound: COc1ccc(C(=O)C2CCN(CC(=O)N(Cc3nc4c(c(=O)[nH]3)COCC4)CC3CC3)CC2)cc1
assigned_category: NO
--
compound: Nc1ncnc2c1c(-c1cnc3[nH]ccc3c1)nn2C1CCCC1
assigned_category: NO
--
compound: COc1ccc(C(=O)CC2(O)C(=O)Nc3c(Cl)ccc(Cl)c32)cc1 (stereo not given)
assigned_category: NO
--
compound: O=C(/C=C/c1ccc(CN(CCO)CCc2c[nH]c3ccccc23)cc1)NO
assigned_category: YES
--
compound: CC(=O)[C@]1(N)Cc2c(O)c3c(c(O)c2[C@@H](O[C@H]2C[C@H](O)[C@H](O)CO2)C1)C(=O)c1ccccc1C3=O
assigned_category: NO
--
compound: NC1CCC(N[C@@H]2C[C@H]2c2ccccc2)CC1 (stereo not given in full)
assigned_category: NO
--
compound: NCCOc1cc(C(=O)Nc2cc(OCCN)c3ccccc3n2)nc(C(=O)Nc2cc(OCCN)c3ccccc3n2)c1
assigned_category: NO
--
compound: O=c1[nH]cnc2ccccc12
assigned_category: NO
--
compound: NC(=O)c1nc(F)c[nH]c1=O
assigned_category: NO
--
compound: Nc1ccc(-c2ccc3ncc4ccc(=O)n(-c5cccc(C(F)(F)F)c5)c4c3c2)cn1
assigned_category: NO

* * *

experiment: growth inhibition of DIPG cells – cell-based, MIPE4.0 library, CellTiter-Glo luminescence, qHTS (AID 1347066); details: SU-DIPG-VI viability, CellTiter-Glo ATP luminescence;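 further: cells exposed to compound for 48 hours before readout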
Records with an inconclusive call do not appear. Activity calls are given as the source filed them. The limit is not given here; nearly all actives have AC50 up to about 30 µM.
Outcomes: active, inactive

compound: COc1cc2c(Oc3ccc(-c4cnc(Nc5ccc(F)cc5)n(C)c4=O)cc3F)ccnc2cc1OCCCN1CCOCC1
assigned_category: active
//
compound: COc1cc(C(C)C)c(Oc2cnc(NC(CO)CO)nc2N)cc1I
assigned_category: inactive
//
compound: NC1=N[C@H]2[C@H](CS[C@H]2CCCCC(=O)O)N1
assigned_category: inactive
//
compound: C[C@@H](N)c1ccc(C(=O)Nc2ccnc3[nH]ccc23)cc1
assigned_category: inactive
//
compound: CCOC(=O)[C@@H](N)Cc1ccc(-c2cc(O[C@H](c3ccc(Cl)cc3-n3ccc(C)n3)C(F)(F)F)nc(N)n2)cc1
assigned_category: active
//
compound: O=C1C(CCC(O)c2ccc(F)cc2)C(c2ccc(O)cc2)N1c1ccc(F)cc1 (centres undefined)
assigned_category: inactive
//
compound: O=c1ncn2nc(Sc3ccc(F)cc3F)ccc2c1-c1c(Cl)cccc1Cl
assigned_category: inactive
//
compound: O=C1NC(=O)/C(=C/c2ccc3nccc(-c4ccncc4)c3c2)S1
assigned_category: active
//
compound: CC[C@@H]([C@H](C)O)n1ncn(-c2ccc(N3CCN(c4ccc(OCC5CO[C@@](Cn6cncn6)(c6ccc(F)cc6F)C5)cc4)CC3)cc2)c1=O (some centres undefined)
assigned_category: inactive
//
compound: CCC[C@H](NC(=O)[C@@H]1[C@H]2CCC[C@H]2CN1C(=O)[C@@H](NC(=O)[C@@H](NC(=O)c1cnccn1)C1CCCCC1)C(C)(C)C)C(=O)C(=O)NC1CC1
assigned_category: inactive
//
compound: CNC(=O)[C@H](CC1=CN=C2C=CCC=C12)NC(=O)[C@@H](CC(=O)NO)CC(C)C
assigned_category: active
//
compound: CN(CC(=O)N(Cc1ccc(C2CCCCC2)cc1)c1ccc(C(=O)O)c(O)c1)S(=O)(=O)c1c(F)c(F)c(F)c(F)c1F
assigned_category: active
//
compound: Clc1ccc2c(N3CCN(CCCN4CCN(c5ccnc6cc(Cl)ccc56)CC4)CC3)ccnc2c1
assigned_category: inactive
//
compound: C[C@H](Cc1ccc(O)c(O)c1)[C@@H](C)Cc1ccc(O)c(O)c1
assigned_category: active
//
compound: Cc1cnc(Nc2cccc(CN3CCOCC3)c2)nc1Nc1cccc(S(=O)(=O)NC(C)(C)C)c1
assigned_category: active
//
compound: c1cc(CN2CCCNCCNCCCNCC2)ccc1CN1CCCNCCNCCCNCC1
assigned_category: inactive
//
compound: COc1ccc(C2CC(c3ccccc3)=NN2c2ccc(S(N)(=O)=O)cc2)cc1 (centres undefined)
assigned_category: inactive
//
compound: CCS(=O)(=O)c1cccc(-c2cc(C(=O)NC3CCN(C)CC3)c(C)c3[nH]c4ncc(C)cc4c23)c1
assigned_category: active
//
compound: C[C@@H](NCc1cc2ccccc2[nH]1)c1cccc2ccccc12
assigned_category: inactive
//
compound: COc1ccc(C(=O)CC2(O)C(=O)Nc3c(Cl)ccc(Cl)c32)cc1 (centres undefined)
assigned_category: inactive
//
compound: Cc1cn2c(-c3cn[nH]c3)cnc2c(Nc2ccc(C(=O)N3CCNCC3)cc2F)n1
assigned_category: active
//
compound: CC(C)(F)C[C@H](N[C@@H](c1ccc(-c2ccc(S(C)(=O)=O)cc2)cc1)C(F)(F)F)C(=O)NC1(C#N)CC1
assigned_category: inactive
//
compound: NC[C@@H]1O[C@H](O[C@H]2[C@@H](O)[C@H](O[C@@H]3[C@@H](O)[C@H](N)C[C@H](N)[C@H]3O[C@H]3O[C@H](CN)[C@@H](O)[C@H](O)[C@H]3N)O[C@@H]2CO)[C@H](N)[C@@H](O)[C@@H]1O
assigned_category: inactive
//
compound: O=C(O)CCC1CCC(c2cc(F)ccc2F)(S(=O)(=O)c2ccc(Cl)cc2)CC1 (centres undefined)
assigned_category: active
//
compound: CNC1CCC(N(Cc2cccc(-c3ccncc3)c2)C(=O)c2sc3c(F)ccc(F)c3c2Cl)CC1 (centres undefined)
assigned_category: active
//
compound: CC(C)n1nc(-c2ccc3oc(N)nc3c2)c2c(N)ncnc21
assigned_category: active
//
compound: COc1cc2nc(N3CCCN(C)CC3)nc(NC3CCN(Cc4ccccc4)CC3)c2cc1OC
assigned_category: active
//
compound: C[C@H](NCc1ccc(OCc2cccc(F)c2)cc1)C(N)=O
assigned_category: active
//
compound: CCCCCCCCCC(=O)N[C@@H](Cc1c[nH]c2ccccc12)C(=O)N[C@H](CC(N)=O)C(=O)N[C@@H](CC(=O)O)C(=O)N[C@@H]1C(=O)NCC(=O)N[C@@H](CCCN)C(=O)N[C@@H](CC(=O)O)C(=O)N[C@H](C)C(=O)N[C@@H](CC(=O)O)C(=O)NCC(=O)N[C@H](CO)C(=O)N[C@@H]([C@@H](C)CC(=O)O)C(=O)N[C@@H](CC(=O)c2ccccc2N)C(=O)O[C@@H]1C
assigned_category: inactive
//
compound: COc1ccc2cc([S+]([O-])Cc3ncc(C)c(OC)c3C)nc2c1
assigned_category: inactive
//
compound: O=C(O)C(O)Cc1ccc(O)c(O)c1 (centres undefined)
assigned_category: inactive
//
compound: CNC(=O)c1ccc2c(C(=Nc3cccc(CN(C)C)c3)c3ccccc3)c(O)[nH]c2c1
assigned_category: inactive
//
compound: CN1CCCN(C(=O)c2cccc(-c3ccc(/C=C4/C(=O)Nc5ccc(Cl)cc54)o3)c2)CC1
assigned_category: active
//
compound: NC(=O)c1cccc2cn(-c3ccc([C@@H]4CCCNC4)cc3)nc12
assigned_category: inactive
